# reported Mouse microsome; entries follow
test: Metabolism in the presence of murine microsomal liver fractions; type: in vitro ADME; settings: percentage disappearance, 5 μM, 20 minutes, 1 mg/ml proteins, NADPH

Compound: CCOC(=O)c1[nH]cc2c1NC1=C(C(=O)CCC1)C2c1cccc(Oc2nc3ccccc3[nH]2)c1 (racemic) [Example 1]
Mouse microsome / %: 31
//
Compound: CCOC(=O)c1[nH]cc2c1NC1=C(C(=O)CCC1)C2c1cccc(Sc2nc3ccccc3[nH]2)c1 (stereo not shown)
Mouse microsome / %: 67
//
Compound: CCOC(=O)c1[nH]cc2c1NC1=C(C(=O)CCC1)[C@@H]2c1ccc(Sc2nc3ccccc3[nH]2)o1
Mouse microsome / %: 81
//
Compound: CCOC(=O)c1[nH]cc2c1NC1=C(C(=O)CCC1)C2c1ccc(Sc2nc3cccc(OC)c3[nH]2)o1 (stereo not shown)
Mouse microsome / %: 74

* * *

# reported log10 IC50; entries follow
molecular target: Aurora B/Incenp (Homo sapiens (Human), UniProt Q96GD4); experiment: Aurora B/Incenp kinase activity, radioactive 33P incorporation into NuMA fragment
Sequence (Q96GD4 whole entry, the tested form may be a part): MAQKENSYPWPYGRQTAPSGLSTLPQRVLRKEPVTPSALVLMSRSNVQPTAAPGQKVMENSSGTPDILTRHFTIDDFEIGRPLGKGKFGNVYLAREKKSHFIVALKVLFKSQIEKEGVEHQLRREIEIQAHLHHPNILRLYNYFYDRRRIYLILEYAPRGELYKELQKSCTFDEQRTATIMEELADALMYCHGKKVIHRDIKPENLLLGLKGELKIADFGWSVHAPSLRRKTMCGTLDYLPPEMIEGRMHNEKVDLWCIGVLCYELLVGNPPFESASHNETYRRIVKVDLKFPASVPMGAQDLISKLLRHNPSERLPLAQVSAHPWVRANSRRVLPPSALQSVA
Sequence (Q9NQS7 821-918 partner): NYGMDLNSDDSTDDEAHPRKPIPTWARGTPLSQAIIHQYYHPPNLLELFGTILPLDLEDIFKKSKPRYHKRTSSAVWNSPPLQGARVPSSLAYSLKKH
Observation type: log10 IC50 (log10 of the value in nM)

Molecule: CCOC(=O)c1[nH]cc2c1NC1=C(C(=O)CCC1)C2c1cccc(Oc2nc3ccccc3[nH]2)c1 (single isomer, unassigned) [Example 3]
log10 IC50: 2.95

Molecule: CCOC(=O)c1[nH]cc2c1NC1=C(C(=O)CC(C)(C)C1)C2c1cccc(Oc2nc3ccccc3[nH]2)c1 (stereo not drawn)
log10 IC50: 0.60

Molecule: O=C1CNCC2=C1C(c1cccc(Oc3nc4ccccc4[nH]3)c1)c1c[nH]nc1N2 (stereo not drawn)
log10 IC50: 1.11

Molecule: CCOC(=O)c1[nH]cc2c1NC1=C(C(=O)CCC1)C2c1cccc(Oc2nc3ccccc3[nH]2)c1 (racemic) [Example 1]
log10 IC50: 0.60

Molecule: O=C1CCCC2=C1C(c1cccc(Oc3nc4ccccc4[nH]3)c1)c1c[nH]nc1N2 (stereo not drawn)
log10 IC50: 0.78

Molecule: CCOC(=O)c1[nH]cc2c1NC1=C(C(=O)CCC1)C2c1ccc(Sc2nc3cccc(OC)c3[nH]2)o1 (stereo not drawn)
log10 IC50: 1.00

Molecule: CCOC(=O)c1[nH]cc2c1NC1=C(C(=O)CC(C)(C)C1)C2c1cccc(Sc2nc3ccccc3[nH]2)c1 (stereo not drawn)
log10 IC50: 1.32

Molecule: CC1(C)CC(=O)C2=C(C1)Nc1n[nH]cc1C2c1cccc(Oc2nc3ccccc3[nH]2)c1 (stereo not drawn)
log10 IC50: 0.95

Molecule: CCOC(=O)c1[nH]cc2c1NC1=C(C(=O)CCC1)C2c1cccc(Sc2nc3ccccc3[nH]2)c1 (stereo not drawn)
log10 IC50: 0.78

* * *

assay: Metabolism in the presence of murine microsomal liver fractions; assay type: in vitro ADME; conditions: percentage disappearance, 5 μM, 20 minutes, 1 mg/ml proteins, NADPH
# reported Mouse microsome; entries follow
Observation type: Mouse microsome (%)

Compound: CCOC(=O)c1[nH]cc2c1NC1=C(C(=O)CC(C)(C)C1)C2c1cccc(Sc2nc3ccccc3[nH]2)c1 (stereo not drawn)
Units of measure: %
Observed: 84
--
Compound: CCOC(=O)c1[nH]cc2c1NC1=C(C(=O)CC(C)(C)C1)C2c1cccc(Oc2nc3ccccc3[nH]2)c1 (stereo not drawn)
Units of measure: %
Observed: 96
--
Compound: CCOC(=O)c1[nH]cc2c1NC1=C(C(=O)CCC1)C2c1cccc(Oc2nc3ccccc3[nH]2)c1 (stereo not drawn) [Example 2]
Units of measure: %
Observed: 50
